Test system: RPMI-8226 leukemia
EXPERIMENTAL_PROTOCOL: NCI tumour cell line growth inhibition, 48 h
PARAMETER_MEASURED: TGI

Cc1nc(N)c(-c2ccccc2)s1	> 72.1 µM
CCN(CC)CCC(CNc1ccnc2cc(Cl)ccc12)c1ccccc1 (stereo unspecified)	13.5 µM
NC(N)=NS(=O)(=O)c1ccc(NNC(=O)c2cccc3c(=O)c4ccccc4[nH]c23)cc1	> 100 µM
Oc1cnc2c(O)cccc2c1	> 100 µM
O=S(=O)(c1ccccc1)N1CN2CN(C1)CN(S(=O)(=O)c1ccccc1)C2	> 100 µM

Look at each molecule and report its TGI.
1. O=c1c2ccccc2nc(-c2ccccc2Cl)n1-c1nnc(C(F)(F)F)s1
2. CCOc1ccc2c(c1)CN(Cc1ccc(Cl)cc1)CO2
3. Cc1n[n+]([O-])c(C)cc1[N+](=O)[O-]
4. COc1cc(/C=N/c2ccccn2)cc(OC)c1OC
5. CC(=O)OCC1OC(n2c(N)c(C#N)c(C)c(C#N)c2=S)C(OC(C)=O)C(OC(C)=O)C1OC(C)=O (stereo unspecified)
6. CN1N=C(c2ccccc2)C(C(c2ccccc2[N+](=O)[O-])C2C(=O)N(C)N=C2c2ccccc2)C1=O (stereo unspecified)

A)
["8.13 µM", "46.4 µM", "6.31 µM", "> 100 µM", "> 100 µM", "> 100 µM"]

----------
System: SF-295 CNS
EXPERIMENTAL_PROTOCOL: NCI tumour cell line growth inhibition, 48 h
PARAMETER_MEASURED: TGI

CCCCCCNC(=S)N/N=C(\C)c1ccccn1	12.5 µM

Look at each compound and report its TGI.
1. COC1OC(CBr)C(OC(=O)c2ccccc2)C(OS(=O)(=O)c2ccc(C)cc2)C1Br (stereo unspecified)
2. Cc1nc(C)c(N2CCN(C(=O)O)CC2)c(=O)[nH]1

A)
1: > 100 µM; 2: > 100 µM

Look at each compound and report its TGI.
1. COc1cc2c(cc1O)CN1CCC23C=C[C@@H](O)CC13 (stereo partly specified)
2. Clc1ccc(CCc2ccncn2)c(Cl)c1
3. CC(=O)C1(C)CC(C#N)(C#N)C(C#N)=C1N (stereo unspecified)

A)
> 100 µM
> 100 µM
> 100 µM

Look at each compound and report its TGI.
1. CCCCN=C(N)c1ccc(N2CCCN(c3ccc(C(N)=NCCCC)cc3)CC2)cc1
2. COc1ccc(-c2[nH]nc(N)c2-c2cc(OC)c3c(c2)OCO3)cc1
3. CCCC(C)NC(=O)c1ccc(N(C)Cc2cnc3nc(N)nc(N)c3n2)cc1 (stereo unspecified)
4. Cc1ccc(Cl)cc1NC(=O)c1cc2ccccc2cc1O
5. C/C(=N\n1c(O)c(C#N)cc(C#N)c1=O)c1ccncc1
6. COc1cccc(/C=C/c2ccnc3ccccc23)c1OC
7. COc1cc(C2C(C(=O)Nc3ccc([N+](=O)[O-])cc3)=C(C)NC(C)=C2C(=O)Nc2ccc([N+](=O)[O-])cc2)ccc1O

A)
57.6 µM
32.4 µM
> 100 µM
3.57 µM
> 100 µM
> 10 µM
65.7 µM

Look at each compound and report its TGI.
1. c1ccc(-c2c3c(nc4c2CC[C@H]4NC2=NCCN2)[C@@H](NC2=NCCN2)CC3)cc1
2. N#C/C(=C\c1cc(O)ccc1O)C(N)=O
3. COc1cccc(C=C2N=C(c3ccccc3)N(n3c(-c4ccccc4)nc4ccccc4c3=O)C2=O)c1

A)
["> 100 µM", "> 100 µM", "> 100 µM"]

Look at each compound and report its TGI.
1. CN1CCN(c2ccc(NC(=O)c3cncnc3Nc3ccc(OCc4cccc(F)c4)c(Cl)c3)cc2)CC1
2. CCOc1ccc(/C=C(\Cl)c2ccc(OC)cc2)cc1
3. CCN(CC)c1ccc(C2Nc3ccc4ccccc4c3C3=C2C(=O)CCC3)cc1 (stereo unspecified)
4. C=C1C(=O)O[C@H]2[C@H]1CC/C(Cn1cc(-c3cccc(Cl)c3)nn1)=C\CC[C@@]1(C)O[C@@H]21
5. COc1cc(C2c3cc4c(cc3OC(NCCc3ccccc3)C2C)OCO4)cc(OC)c1OC (stereo unspecified)

A)
1. 16.5 µM
2. > 100 µM
3. > 100 µM
4. 13 µM
5. 1.98 µM
